Taken from patent US7427625B2.

# SYSTEM: EGFR (Homo sapiens, UniProt P00533)
# Construct: The intracellular portion of EGFR started at nucleotide 2189 (corresponding to amino acid 667) and ended at the termination codon
# Sequence (P00533 669-1210 limits assumed): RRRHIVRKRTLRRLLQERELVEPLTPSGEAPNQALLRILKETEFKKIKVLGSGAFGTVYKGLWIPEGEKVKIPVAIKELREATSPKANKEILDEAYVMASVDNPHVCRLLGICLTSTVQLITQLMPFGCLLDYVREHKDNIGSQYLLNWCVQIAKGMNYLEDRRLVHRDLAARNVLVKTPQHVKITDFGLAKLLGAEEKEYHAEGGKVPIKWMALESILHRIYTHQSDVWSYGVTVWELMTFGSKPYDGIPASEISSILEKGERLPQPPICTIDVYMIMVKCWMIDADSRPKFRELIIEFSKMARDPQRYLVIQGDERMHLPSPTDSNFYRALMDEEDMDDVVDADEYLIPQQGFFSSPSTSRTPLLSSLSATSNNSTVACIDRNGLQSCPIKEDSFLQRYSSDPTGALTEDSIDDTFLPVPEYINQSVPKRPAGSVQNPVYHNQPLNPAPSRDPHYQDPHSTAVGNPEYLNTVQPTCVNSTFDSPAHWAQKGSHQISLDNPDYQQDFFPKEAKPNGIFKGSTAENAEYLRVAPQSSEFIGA
# PROCEDURE TEXT: EGFR Kinase Assay
PARAMETER: IC50 (nM)
Report only the number, with the unit nM understood.

Quick check: IC50 of N#Cc1cnc2sc(C(=O)Nc3ccc(CCN4CCCCC4)cc3)c3c2c1N(c1c(Cl)ccc2c1OCO2)C(=O)N3 ?
1600

Then this compound: CN(C)C1CCN(Cc2ccc(NC(=O)c3sc4ncc(C#N)c5c4c3NC(=O)N5c3c(Cl)ccc4c3OCO4)cc2)CC1
850

Then this compound: N#Cc1cnc2sc(C(=O)Nc3cc[nH]n3)c3c2c1N(c1c(Cl)ccc2c1OCO2)C(=O)N3
1220

Then this compound: N#Cc1cnc2sc(C(=O)Nc3ccc(CN4CCC(CO)CC4)cc3)c3c2c1N(c1c(Cl)ccc2c1OCO2)C(=O)N3
567

Then this compound: CCOC(=O)c1sc2nc(O)c(C#N)c3c2c1NC(=O)N3c1ccc(Oc2ccccc2)cc1
16.9

Then this compound: N#Cc1cnc2sc(C(=O)Nc3ccc(CN4CCC(O)CC4)cc3)c3c2c1N(c1c(Cl)ccc2c1OCO2)C(=O)N3
598

Then this compound: CN1CCC(NC(=O)c2sc3ncc(C#N)c4c3c2NC(=O)N4c2c(Cl)ccc3c2OCO3)CC1
3960

###

# SYSTEM: VEGF-R2 (Rattus norvegicus)
# Construct: polyhistidine (N)
# Sequence (O08775 786-1343): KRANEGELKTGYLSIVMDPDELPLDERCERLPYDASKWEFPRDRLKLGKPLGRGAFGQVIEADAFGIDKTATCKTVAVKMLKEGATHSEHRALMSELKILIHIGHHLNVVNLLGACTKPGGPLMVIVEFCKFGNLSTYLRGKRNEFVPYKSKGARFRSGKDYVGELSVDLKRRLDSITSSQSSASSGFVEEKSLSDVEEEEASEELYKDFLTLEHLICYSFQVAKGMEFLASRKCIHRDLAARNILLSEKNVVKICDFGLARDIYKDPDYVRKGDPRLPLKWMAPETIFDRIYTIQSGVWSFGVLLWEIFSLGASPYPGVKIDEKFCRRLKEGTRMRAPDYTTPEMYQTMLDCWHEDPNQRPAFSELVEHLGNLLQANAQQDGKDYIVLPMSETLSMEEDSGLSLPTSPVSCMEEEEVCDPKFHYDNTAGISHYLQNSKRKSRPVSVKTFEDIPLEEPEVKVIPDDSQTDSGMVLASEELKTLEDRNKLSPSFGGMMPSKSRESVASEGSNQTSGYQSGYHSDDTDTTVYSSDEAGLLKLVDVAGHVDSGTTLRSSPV
# PROCEDURE TEXT: VEGF-R2 Screening Assay
# Assay type: biochemical
# REPORTED CONDITIONS: test concentration of 1 μM; read-out: VEGF-R2 percent inhibition
PARAMETER: inhibition at 1 µM (%)
Report only the number, with the unit % understood.

Quick check: inhibition at 1 µM of CC(C)(CO)NC(=O)c1sc2ncc(C#N)c3c2c1NC(=O)N3c1c(Cl)ccc2c1OCO2 ?
2

Then this compound: N#Cc1cnc2sc(C(=O)Nc3ccc(NCCCN4CCOCC4)nc3)c3c2c1N(c1c(Cl)ccc2c1OCO2)C(=O)N3
12

Then this compound: CN1CCCCC1COc1ccc(NC(=O)c2sc3ncc(C#N)c4c3c2NC(=O)N4c2c(Cl)ccc3c2OCO3)cc1 (stereo not shown)
1

Then this compound: C[C@@H]1CN(Cc2ccc(NC(=O)c3sc4ncc(C#N)c5c4c3NC(=O)N5c3c(Cl)ccc4c3OCO4)cc2)C[C@H](C)O1
0

Then this compound: N#Cc1cnc2sc(C(=O)Nc3ccc(CN4CCCC(CO)C4)cc3)c3c2c1N(c1c(Cl)ccc2c1OCO2)C(=O)N3 (stereo not shown)
24

Then this compound: Cn1ccc(NC(=O)c2sc3ncc(C#N)c4c3c2NC(=O)N4c2c(Cl)ccc3c2OCO3)n1
9

Then this compound: CN(C(=O)c1sc2ncc(C#N)c3c2c1NC(=O)N3c1c(Cl)ccc2c1OCO2)c1ccc(CN2CCOCC2)cc1
10

Then this compound: N#Cc1cnc2sc(C(=O)Nc3ncccn3)c3c2c1N(c1c(Cl)ccc2c1OCO2)C(=O)N3
22

Then this compound: N#Cc1cnc2sc(C(=O)Nc3ccncc3)c3c2c1N(c1c(Cl)ccc2c1OCO2)C(=O)N3
9

Then this compound: N#Cc1cnc2sc(C(=O)N3CCC(O)CC3)c3c2c1N(c1c(Cl)ccc2c1OCO2)C(=O)N3
15

Then this compound: N#Cc1cnc2sc(C(=O)Nc3ccccn3)c3c2c1N(c1c(Cl)ccc2c1OCO2)C(=O)N3
-22

Then this compound: CC1COCC(C)N1Cc1ccc(NC(=O)c2sc3ncc(C#N)c4c3c2NC(=O)N4c2c(Cl)ccc3c2OCO3)cc1 (stereo not shown)
14

Then this compound: N#Cc1cnc2sc(C(=O)Nc3cc[nH]n3)c3c2c1N(c1c(Cl)ccc2c1OCO2)C(=O)N3
18

Then this compound: CN(C)c1cc(NC(=O)c2sc3ncc(C#N)c4c3c2NC(=O)N4c2c(Cl)ccc3c2OCO3)ccc1CN1CCOCC1
7

Then this compound: N#Cc1cnc2sc(C(=O)Nc3cccnc3)c3c2c1N(c1c(Cl)ccc2c1OCO2)C(=O)N3
15

Then this compound: Cc1cc(NC(=O)c2sc3ncc(C#N)c4c3c2NC(=O)N4c2c(Cl)ccc3c2OCO3)no1
16

Then this compound: COc1cc(NC(=O)c2sc3ncc(C#N)c4c3c2NC(=O)N4c2c(Cl)ccc3c2OCO3)ccc1OCCN1CCCCC1
17

Then this compound: N#Cc1cnc2sc(C(=O)Nc3ccc(CN4CCC(F)CC4)cc3)c3c2c1N(c1c(Cl)ccc2c1OCO2)C(=O)N3
11

Then this compound: N#Cc1cnc2sc(C(=O)Nc3ccc(CN4CCC(O)CC4)cc3)c3c2c1N(c1c(Cl)ccc2c1OCO2)C(=O)N3
28

###

# SYSTEM: UniProt P07948
# Sequence (P07948 whole entry): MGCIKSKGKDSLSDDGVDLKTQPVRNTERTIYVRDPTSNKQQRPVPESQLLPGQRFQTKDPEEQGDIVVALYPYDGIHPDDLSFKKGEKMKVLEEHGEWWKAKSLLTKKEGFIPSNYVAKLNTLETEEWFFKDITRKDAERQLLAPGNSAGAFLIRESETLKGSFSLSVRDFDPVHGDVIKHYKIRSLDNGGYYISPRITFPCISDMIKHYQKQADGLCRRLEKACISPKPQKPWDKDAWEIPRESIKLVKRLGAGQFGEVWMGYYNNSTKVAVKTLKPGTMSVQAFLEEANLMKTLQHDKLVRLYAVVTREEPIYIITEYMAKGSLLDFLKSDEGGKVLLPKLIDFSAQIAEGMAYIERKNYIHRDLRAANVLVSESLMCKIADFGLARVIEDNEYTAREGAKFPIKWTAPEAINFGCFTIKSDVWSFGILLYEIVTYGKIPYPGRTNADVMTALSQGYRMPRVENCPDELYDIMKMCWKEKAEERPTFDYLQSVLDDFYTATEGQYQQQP
Please respond with reported pIC50 for every item in the list.
pIC50 field: float, defined as -log10 of concentration (mol/L).

Quick check: pIC50 of CN1CCC(NC(=O)c2sc3ncc(C#N)c4c3c2NC(=O)N4c2c(Cl)ccc3c2OCO3)CC1 ?
6.57

Then this compound: N#Cc1cnc2sc(C(=O)Nc3ccc(CN4CCOCC4)cc3)c3c2c1N(c1c(Cl)ccc2c1OCO2)C(=O)N3
6.32

###

Please respond with reported pIC50 for every item in the list.
# SYSTEM: EGFR (Homo sapiens, UniProt P00533)
# Construct: The intracellular portion of EGFR started at nucleotide 2189 (corresponding to amino acid 667) and ended at the termination codon
# PROCEDURE TEXT: EGFR Kinase Assay
# Protocol: The EGFR kinase used was a fusion of Glutathione-S-Transferase (GST) and a PCR amplified intracellular portion of EGFR (NM_005228). […] The plates were incubated at 30° C. for 1 hr with shaking. […] The plates were then sealed and read on the TopCount scintillation counter. Test compounds were assayed in triplicate at 16 concentrations at half-log dilutions starting at 200 uM. A maximum and minimum signal for the assay was determined on each plate. […]
pIC50 field: float, defined as -log10 of concentration (mol/L).

Quick check: pIC50 of N#Cc1cnc2sc(C(=O)Nc3ccc(CN4CCCCC4)cc3)c3c2c1N(c1ccc(Oc2ccccc2)cc1)C(=O)N3 ?
6.65

Then this compound: CC1CCN(Cc2ccc(NC(=O)c3sc4ncc(C#N)c5c4c3NC(=O)N5c3c(Cl)ccc4c3OCO4)cc2)CC1
6.20

Then this compound: COc1cc(NC(=O)c2sc3ncc(C#N)c4c3c2NC(=O)N4c2c(Cl)ccc3c2OCO3)ccc1OCCN1CCCCC1
6.29

Then this compound: N#Cc1cnc2sc(C(=O)Nc3ccc(CN4CCC(F)CC4)cc3)c3c2c1N(c1c(Cl)ccc2c1OCO2)C(=O)N3
5.69

Then this compound: N#Cc1cnc2sc(C(=O)Nc3ccc(CN4CCCC(CO)C4)cc3)c3c2c1N(c1c(Cl)ccc2c1OCO2)C(=O)N3 (stereo not shown)
6.04

Then this compound: N#Cc1cnc2sc(C(=O)Nc3ccc(CN4CCOCC4)cc3)c3c2c1N(c1ccc(Oc2ccccc2)cc1)C(=O)N3
6.91

Then this compound: N#Cc1cnc2sc(C(=O)Nc3ccc(CN4CCC(N)CC4)cc3)c3c2c1N(c1c(Cl)ccc2c1OCO2)C(=O)N3
6.29

Then this compound: CN1CCN(CCc2ccc(NC(=O)c3sc4ncc(C#N)c5c4c3NC(=O)N5c3c(Cl)ccc4c3OCO4)cc2)CC1
5.57

Then this compound: COc1cc(NC(=O)c2sc3ncc(C#N)c4c3c2NC(=O)N4c2ccc(Oc3ccccc3)cc2)ccc1CN1CCOCC1
7.03

Then this compound: CC(C)(C)OC(=O)NC1CCN(Cc2ccc(NC(=O)c3sc4ncc(C#N)c5c4c3NC(=O)N5c3c(Cl)ccc4c3OCO4)cc2)CC1
6.82

###

pIC50, VEGF-R2 (Rattus norvegicus): measured values
pIC50: −log10 of the molar value.

Quick check: pIC50 of N#Cc1cnc2sc(C(=O)N3CCCC(F)C3)c3c2c1N(c1c(Cl)ccc2c1OCO2)C(=O)N3 (stereo not shown) ?
~4.00

Then this compound: CCOC(=O)c1sc2nc(O)c(C#N)c3c2c1NC(=O)N3c1ccc(Oc2ccccc2)cc1
< 4.00

Then this compound: CN(C)C1CCN(Cc2ccc(NC(=O)c3sc4ncc(C#N)c5c4c3NC(=O)N5c3c(Cl)ccc4c3OCO4)cc2)CC1
< 4.00

Then this compound: N#Cc1cnc2sc(C(=O)Nc3ccc(CCN4CCCCC4)cc3)c3c2c1N(c1ccc(Oc2ccccc2)cc1)C(=O)N3
< 4.00

Then this compound: CCOC(=O)c1sc2nc(O)c(C#N)c3c2c1NC(=O)N3c1ccncc1
< 4.00

Then this compound: N#Cc1cnc2sc(C(=O)Nc3ccc(CN4CCCC(F)C4)cc3)c3c2c1N(c1c(Cl)ccc2c1OCO2)C(=O)N3 (stereo not shown)
< 5.00

Then this compound: COc1cc(NC(=O)c2sc3ncc(C#N)c4c3c2NC(=O)N4c2ccc(Oc3ccccc3)cc2)ccc1CN1CCOCC1
< 4.00

Then this compound: Cc1nc2sc(C(=O)Nc3ccc(CN4CCOCC4)cc3)c3c2c(c1C#N)N(c1c(Cl)ccc2c1OCO2)C(=O)N3
< 5.00

Then this compound: COC1CCN(Cc2ccc(NC(=O)c3sc4ncc(C#N)c5c4c3NC(=O)N5c3ccc(Oc4ccccc4)cc3)cc2)CC1
< 4.00

Then this compound: N#Cc1cnc2sc(C(=O)Nc3ccc(CN4CCOCC4)cc3)c3c2c1N(c1c(Cl)ccc2c1OCO2)C(=O)N3
< 5.00

Then this compound: CCOC(=O)c1sc2nc(N3CCOCC3)c(C#N)c3c2c1NC(=O)N3c1c(Cl)ccc2c1OCO2
< 4.00

Then this compound: N#Cc1cnc2sc(C(=O)N3CCCC(CO)C3)c3c2c1N(c1c(Cl)ccc2c1OCO2)C(=O)N3 (stereo not shown)
< 4.00

Then this compound: CN1CCN(CCc2ccc(NC(=O)c3sc4ncc(C#N)c5c4c3NC(=O)N5c3c(Cl)ccc4c3OCO4)cc2)CC1
< 4.00

Then this compound: N#Cc1cnc2sc(C(=O)Nc3ccc(CN4CCCCC4)cc3)c3c2c1N(c1ccc(Oc2ccccc2)cc1)C(=O)N3
< 4.00

Then this compound: COc1cc(N2C(=O)Nc3c(C(=O)Nc4ccc(CCN5CCOCC5)cc4)sc4ncc(C#N)c2c34)c(Cl)cc1Cl
< 4.00

Then this compound: N#Cc1cnc2sc(C(=O)Nc3ccc(CN4CCC(CO)CC4)cc3)c3c2c1N(c1c(Cl)ccc2c1OCO2)C(=O)N3
< 4.00
